# method-description: Selectivity index, ratio of IC50 for mouse J774A cells to IC50 for Trypanosoma cruzi Y epimastigotes
# Assay type: toxicity, cell-based
# condition-set: J774A cells versus Trypanosoma cruzi Y epimastigotes, read-out: Ratio IC50
recorded-metric: selectivity ratio
The reply should be a number, written without any unit.

The reported value for O=C1C=C(Oc2ccccc2)C(=O)c2ccccc21 in terms of selectivity ratio is 250

The reported value for CCOC(=O)c1cc2c(n1CC)C(=O)C(Oc1ccc(OC)cc1)=CC2=O in terms of selectivity ratio is 625

The reported value for CC1CS(=O)(=O)CCN1/N=C/c1ccc([N+](=O)[O-])o1 (stereo not given) in terms of selectivity ratio is 40

The reported value for CCOC(=O)c1cc2c(n1CC)C(=O)C(Oc1ccccc1C)=CC2=O in terms of selectivity ratio is 89.3

The reported value for CCOC(=O)c1cc2c(n1CC)C(=O)C(Oc1ccccc1)=CC2=O in terms of selectivity ratio is 100
